experiment: Kinetics of oxidation of the dihydro derivatives in brain homogenate; type: in vitro ADME, rat; details: rat, pH 7.4, 37°C, unit inferred
Property: half-life (min)
Lab book: enter the figure in min, no units written.

Exercise: Recorded half-life of CN1C=C(C(=O)NCCc2ccccc2)CC(C(=O)NCCc2ccccc2)=C1 , please.
Solution: 1370

###

experiment: Enzymatic hydrolytic cleavage and rate of oxidation of compound 5c in human blood (HPLC); assay type: in vitro ADME; conditions: whole citrated blood, 37°C, pseudo first order, read-out: apparent half-lives for the disappearance
Property: half-life at 900 µM (min)
The answer is to be given in min; state only the numeric part.

Exercise: What measured half-life at 900 µM goes with CN1C=CCC(C(=O)NCCc2ccc(OC(=O)C(C)(C)C)c(OC(=O)C(C)(C)C)c2)=C1 [5c] ?
Solution: 18

Values were extracted from patent EP0110955B1.
